Every entry's value here was drawn from ChEMBL document CHEMBL4152245.

- Assay System: Bromodomain-containing protein 4 (Homo sapiens)
- Assay Name: Binding affinity to His-tagged BRD4 bromodomain-1 (unknown origin) expressed in Escherichia coli BL21(DE3) assessed as change in melting temperature at 100 uM by SYPRO orange dye based thermal shift assay
Readout Type: ΔTm
Respond with a number, then the unit of measure.

Past entries and their recorded results:
CCN1C(=O)c2cccc3c(S(=O)(=O)N4CCC[C@@H]4C(=O)Nc4ccccc4)ccc1c23; 13.9 °C
CCN1C(=O)c2cccc3c(S(=O)(=O)N4CCC[C@@H]4C(=O)O)ccc1c23; 10.5 °C
CCN1C(=O)c2cccc3c(S(=O)(=O)N4CCC[C@@H]4C(=O)NN)ccc1c23; 7.8 °C
CCN1C(=O)c2cccc3c(S(=O)(=O)NCCO)ccc1c23; 13.2 °C

Output ΔTm of CCN1C(=O)c2cccc3c(S(=O)(=O)N4CCCC4)ccc1c23 3.4 °C

---

- Assay System: Bromodomain-containing protein 4 (Homo sapiens)
- Assay Name: Inhibition of His-tagged BRD4 bromodomain-1 (unknown origin) expressed in Escherichia coli BL21(DE3) at 20 uM using SGRGK(Ac)-GG-K(Ac)-GLG-K(Ac)-GGA-K(Ac)-RHRKVGG-K-Biotin as substrate preincubated for 15 mins followed by substrate addition measured after 10 mins by Alphascreen assay relative to control
Activity calls are given as the source filed them. The calls are words filed in the database; no cut-off is given here.
Readout Type: inhibition

Past entries and their recorded results:
CCN1C(=O)c2cccc3c(S(=O)(=O)N4CC[C@@H](OC)C4)ccc1c23; 8%
CCN1C(=O)c2cccc3c(S(=O)(=O)NCCO)ccc1c23; 100%
CCN1C(=O)c2cccc3c(S(=O)(=O)N4CC[C@H](NC(=O)OC(C)(C)C)C4)ccc1c23; 88%
CCN1C(=O)c2cccc3c(S(=O)(=O)N[C@@H](Cc4ccccc4)C(=O)O)ccc1c23; inactive
CCN1C(=O)c2cccc3c(S(=O)(=O)N[C@@H](Cc4ccccc4)C(=O)OC)ccc1c23; 71%

Now consider a different compound.
Name the value of inhibition reported for CCN1C(=O)c2cccc3c(S(=O)(=O)N[C@H](C(=O)O)C(C)C)ccc1c23 when tested on Bromodomain-containing protein 4 (Homo sapiens). inactive

---

- Assay System: Bromodomain-containing protein 4 (Homo sapiens)
- Assay Name: Inhibition of His-tagged BRD4 bromodomain-1 (unknown origin) expressed in Escherichia coli BL21(DE3) at 100 uM using SGRGK(Ac)-GG-K(Ac)-GLG-K(Ac)-GGA-K(Ac)-RHRKVGG-K-Biotin as substrate preincubated for 15 mins followed by substrate addition measured after 10 mins by Alphascreen assay relative to control
Readout Type: inhibition

Past entries and their recorded results:
CN(C)C(=O)CN1C(=O)c2cccc3c(S(=O)(=O)N4CCCC4)ccc1c23; > 90%
CCN1C(=O)c2cccc3c(S(=O)(=O)N4CC[C@@H](O)C4)ccc1c23; > 90%

Name the value of inhibition reported for CC(=O)N1C(=O)c2cccc3c(S(=O)(=O)N4CCCC4)ccc1c23 when tested on Bromodomain-containing protein 4 (Homo sapiens). > 90%

---

- Assay System: Bromodomain-containing protein 4 (Homo sapiens)
- Assay Name: Inhibition of His-tagged BRD4 bromodomain-1 (unknown origin) expressed in Escherichia coli BL21(DE3) at 20 uM using SGRGK(Ac)-GG-K(Ac)-GLG-K(Ac)-GGA-K(Ac)-RHRKVGG-K-Biotin as substrate preincubated for 15 mins followed by substrate addition measured after 10 mins by Alphascreen assay relative to control
Each entry below lists one item and its recorded inhibition value.

Past entries and their recorded results:
CCN1C(=O)c2cccc3c(S(=O)(=O)N4CC[C@@H](NC(=O)OC(C)(C)C)C4)ccc1c23; 95%
CCN1C(=O)c2cccc3c(S(=O)(=O)N4CC[C@@H](O)C4)ccc1c23; 67%
CCN1C(=O)c2cccc3c(S(=O)(=O)N4CCCC4)ccc1c23; 99%

Now consider a different molecule.
Output inhibition of CCN1C(=O)c2cccc3c(S(=O)(=O)NCCC(=O)OC)ccc1c23 66%

---

- Assay System: Bromodomain-containing protein 4 (Homo sapiens, UniProt O60885)
- Assay Name: Inhibition of His-tagged BRD4 bromodomain-1 (unknown origin) expressed in Escherichia coli BL21(DE3) at 20 uM using SGRGK(Ac)-GG-K(Ac)-GLG-K(Ac)-GGA-K(Ac)-RHRKVGG-K-Biotin as substrate preincubated for 15 mins followed by substrate addition measured after 10 mins by Alphascreen assay relative to control
Each entry below lists one item and its recorded inhibition value.

Past entries and their recorded results:
CCN1C(=O)c2cccc3c(S(=O)(=O)NCC(=O)O)ccc1c23; 53%
CCN1C(=O)c2cccc3c(S(=O)(=O)N4CCC[C@@H]4C(=O)OC)ccc1c23; 61%
CCN1C(=O)c2cccc3c(S(=O)(=O)N4CCC[C@@H]4C(=O)NO)ccc1c23; 50%

Output inhibition of CCN1C(=O)c2cccc3c(S(=O)(=O)N4CC[C@H](OC)C4)ccc1c23 80%

Output inhibition of CCN1C(=O)c2cccc3c(S(=O)(=O)N4CCC[C@@H]4C(=O)Nc4ccccc4C)ccc1c23 39%

Output inhibition of CN1C(=O)c2cccc3c(S(=O)(=O)N4CCCC4)ccc1c23 25%

---

Each entry below lists one item and its recorded inhibition value.
- Assay System: Bromodomain-containing protein 4 (Homo sapiens, UniProt O60885)
- Assay Name: Inhibition of His-tagged BRD4 bromodomain-1 (unknown origin) expressed in Escherichia coli BL21(DE3) at 5 uM using SGRGK(Ac)-GG-K(Ac)-GLG-K(Ac)-GGA-K(Ac)-RHRKVGG-K-Biotin as substrate preincubated for 15 mins followed by substrate addition measured after 10 mins by Alphascreen assay relative to control
Expressed in %, but write only the number.

CCN1C(=O)c2cccc3c(S(=O)(=O)N4CCC[C@@H]4C(=O)NO)ccc1c23; 7
CCN1C(=O)c2cccc3c(S(=O)(=O)N4CC[C@H](O)C4)ccc1c23; 35

Now consider a different compound.
Name the value of inhibition reported for CCN1C(=O)c2cccc3c(S(=O)(=O)N(CC)CC)ccc1c23 when tested on Bromodomain-containing protein 4 (Homo sapiens, UniProt O60885). 29

---

- Assay System: Bromodomain-containing protein 4 (Homo sapiens)
- Assay Name: Inhibition of His-tagged BRD4 bromodomain-1 (unknown origin) expressed in Escherichia coli BL21(DE3) at 5 uM using SGRGK(Ac)-GG-K(Ac)-GLG-K(Ac)-GGA-K(Ac)-RHRKVGG-K-Biotin as substrate preincubated for 15 mins followed by substrate addition measured after 10 mins by Alphascreen assay relative to control
Active and inactive are the calls of the source. The rule behind the calls is not given here.
Readout Type: inhibition

CCN1C(=O)c2cccc3c(S(=O)(=O)N[C@@H](Cc4ccccc4)C(=O)O)ccc1c23; 4%
CCN1C(=O)c2cccc3c(S(=O)(=O)N4CCC[C@@H]4C(=O)NN)ccc1c23; 93%
CCN1C(=O)c2cccc3c(S(=O)(=O)N4CCC[C@@H]4C(=O)Nc4ccccc4C)ccc1c23; inactive
CCN1C(=O)c2cccc3c(S(=O)(=O)Nc4ccccc4OC)ccc1c23; 33%
CCN1C(=O)c2cccc3c(S(=O)(=O)N[C@H](C(=O)O)C(C)C)ccc1c23; inactive

Output inhibition of CCN1C(=O)c2cccc3c(S(=O)(=O)N4CCC[C@@H](NC(=O)OC(C)(C)C)C4)ccc1c23 9%

Output inhibition of CCN1C(=O)c2cccc3c(S(=O)(=O)NCCO)ccc1c23 98%

Output inhibition of CCN1C(=O)c2cccc3c(S(=O)(=O)N4CCC[C@@H](O)C4)ccc1c23 9%

Output inhibition of CCN1C(=O)c2cccc3c(S(=O)(=O)N4CCC(NC(=O)OC(C)(C)C)CC4)ccc1c23 18%

Output inhibition of CCN1C(=O)c2cccc3c(S(=O)(=O)N4CCCCC4)ccc1c23 58%

Output inhibition of CCN1C(=O)c2cccc3c(S(=O)(=O)N4CCC[C@H](N)C4)ccc1c23 inactive

Output inhibition of CCN1C(=O)c2cccc3c(S(=O)(=O)NCCCO)ccc1c23 inactive

---

- Assay System: Bromodomain-containing protein 4 (Homo sapiens, UniProt O60885)
- Assay Name: Inhibition of His-tagged BRD4 bromodomain-1 (unknown origin) expressed in Escherichia coli BL21(DE3) at 20 uM using SGRGK(Ac)-GG-K(Ac)-GLG-K(Ac)-GGA-K(Ac)-RHRKVGG-K-Biotin as substrate preincubated for 15 mins followed by substrate addition measured after 10 mins by Alphascreen assay relative to control
Readout Type: inhibition

Output inhibition of CCN1C(=O)c2cccc3c(S(=O)(=O)N4CCC[C@@H](NC(=O)OC(C)(C)C)C4)ccc1c23 20%

Output inhibition of CCN1C(=O)c2cccc3c(S(=O)(=O)N[C@H](C(=O)OC)C(C)C)ccc1c23 89%

Output inhibition of CCN1C(=O)c2cccc3c(S(=O)(=O)N4CCC[C@@H]4CO)ccc1c23 4%

Output inhibition of O=C1c2cccc3c(S(=O)(=O)N4CCCC4)ccc(c23)N1CCO 8%

Output inhibition of CCN1C(=O)c2cccc3c(S(=O)(=O)N4CCC[C@@H]4C(=O)NN)ccc1c23 100%
